Target: Recombinant IKKα (Homo sapiens)
Construct: purchased Millipore, Dundee, UK
Sequence (O15111 1-745): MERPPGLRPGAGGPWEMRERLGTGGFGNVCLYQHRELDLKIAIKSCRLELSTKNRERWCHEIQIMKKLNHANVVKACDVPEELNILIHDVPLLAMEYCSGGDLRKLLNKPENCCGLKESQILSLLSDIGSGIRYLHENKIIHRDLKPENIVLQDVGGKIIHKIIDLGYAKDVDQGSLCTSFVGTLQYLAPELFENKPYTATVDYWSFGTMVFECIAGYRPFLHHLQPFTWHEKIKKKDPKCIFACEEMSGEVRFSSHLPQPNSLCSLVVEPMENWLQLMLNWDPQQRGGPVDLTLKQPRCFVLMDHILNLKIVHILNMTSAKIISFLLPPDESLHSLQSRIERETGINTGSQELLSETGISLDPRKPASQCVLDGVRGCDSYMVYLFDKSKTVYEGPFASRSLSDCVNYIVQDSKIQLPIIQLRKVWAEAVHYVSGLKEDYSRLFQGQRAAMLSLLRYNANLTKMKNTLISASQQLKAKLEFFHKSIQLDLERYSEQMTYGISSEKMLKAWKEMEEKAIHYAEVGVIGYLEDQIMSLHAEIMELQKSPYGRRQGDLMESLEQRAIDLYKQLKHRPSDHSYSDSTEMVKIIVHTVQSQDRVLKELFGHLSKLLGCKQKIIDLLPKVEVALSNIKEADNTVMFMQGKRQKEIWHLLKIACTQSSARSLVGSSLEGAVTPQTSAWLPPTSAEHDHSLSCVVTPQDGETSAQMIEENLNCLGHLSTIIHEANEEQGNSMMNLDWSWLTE
Assay: DELFIA IKKα kinase assay (apparent Ki, Cheng-Prusoff)
Type: biochemical
Settings: DELFIA assay (first line of an example)
outcome-measure: Ki (nM)

>>> numeric_readout("COC(=O)Nc1cc(-c2cc(CCC(C)(C)C)c3[nH]nc(N)c3c2)ccn1")
19

[P] Nc1n[nH]c2c(C#CCCN3CCCCC3)cc(-c3ccnc4[nH]ccc34)cc12
[Q] Cn1nnc(Nc2cc(-c3cc(C#CC(C)(C)C)c4[nH]nc(N)c4c3)ccn2)n1
[R] Nc1n[nH]c2c(C#CC3(O)CCCCC3)cc(-c3ccnc4[nH]ccc34)cc12
Write the entries in order, lowest recorded Ki first. Your reply should list the labels following the order given in the request.
Q, P, R

###

biological target: Recombinant IKKα (Homo sapiens, UniProt O15111); construct: purchased Millipore, Dundee, UK; test: DELFIA IKKα kinase assay (apparent Ki, Cheng-Prusoff); assay type: biochemical; conditions: non-italicised figure: DELFIA assay
pKi: −log10 of the molar value.
outcome-measure: pKi

Consider the reported pKi for these compounds:
>>> numeric_readout("CC(C)(C)C#Cc1cc(-c2ccnc(N)c2)cc2c(N)n[nH]c12")
7.28
>>> numeric_readout("Nc1n[nH]c2ccc(-c3ccnc(NC(=O)NCCO)c3)cc12")
7.68
>>> numeric_readout("Nc1cc(-c2cc(-c3cccnc3)c3[nH]nc(N)c3c2)ccn1")
6.94
>>> numeric_readout("Nc1n[nH]c2ccc(-c3ccnc(NC(=O)c4ccccc4)c3)cc12")
7.59
>>> numeric_readout("Nc1cc(-c2cc(-c3ccoc3)c3[nH]nc(N)c3c2)ccn1")
8.00
>>> numeric_readout("Nc1nccc(-c2ccc3[nH]nc(N)c3c2)c1C#CC1(O)CCCCC1")
7.44
>>> numeric_readout("CC(C)(C)C#Cc1cc(-c2ccnc(NCCO)c2)cc2c(N)n[nH]c12")
8.10

[I] CCNc1cc(-c2ccc3[nH]nc(N)c3c2)ccn1
[II] NC(=O)c1cccc(NC(=O)Nc2cc(-c3ccc4[nH]nc(N)c4c3)ccn2)c1
When the recorded pKi values are compared, which is smaller: that of I or that of II ? Your choice should be expressed through its label.
II
(II: 7.68, I: 8.10)
